test_name: Molar enthalpy of transition or fusion
condition_context: Crystal
measured_property: Molar enthalpy of transition or fusion (kcal/mol)
Return type: number; implicit unit kcal/mol.

Ask | What value of Molar enthalpy of transition or fusion has been reported for the following compound? CCCCCCCCCCCC[n+]1cccc(C)c1.[Cl-] [1-dodecyl-3-methylpyridinium chloride]
Reply | 8.87

Ask | Now the compound CCCCCCCCCCCCCCCC[n+]1cccc(C)c1.[Cl-] [1-hexadecyl-3-methylpyridinium chloride]
Reply | 9.63

Ask | Now the compound CCCCCCCC[n+]1cccc(C)c1.[Cl-] [1-octyl-3-methylpyridinium chloride]
Reply | 3.56

Ask | Now the compound CCCCCCCCCCCCCC[n+]1cccc(C)c1.[Cl-] [1-tetradecyl-3-methylpyridinium chloride]
Reply | 10.2

Ask | Now the compound CCCCCCCCCCCCCCCCCC[n+]1cccc(C)c1.[Cl-] [3-methyl-1-octadecylpyridinium chloride]
Reply | 6.72

Ask | Now the compound CCCC[n+]1cccc(C)c1.[Cl-] [1-butyl-3-methylpyridinium chloride]
Reply | 6.57

Ask | Now the compound CCCCCC[n+]1cccc(C)c1.[Cl-] [1-hexyl-3-methylpyridinium chloride]
Reply | 4.71

Ask | Now the compound CCCCCCCCCC[n+]1cccc(C)c1.[Cl-] [1-decyl-3-methylpyridinium chloride]
Reply | 3.44
